biological target: PI3K (p110γ) (Homo sapiens); assay: PI3Kγ ADP-Glo kinase assay; assay type: biochemical; conditions: read-out: PI3Kγ max inhibition (%) at 0.5 μM
Listing: inhibition at 0.5 µM of selected molecules

Known inhibition at 0.5 µM results, listed for orientation:
Qu. Please give the measured inhibition at 0.5 µM for this molecule: COc1c(C(C)c2nc(-c3cccc(O)c3)c3c(N)nccn23)cc(Cl)c(C)c1-c1cccnc1 (stereo not drawn) [Compound 4]
Ans. 9%

Qu. Another: COc1c(C(C)c2nc(Br)c3c(N)nccn23)cc(Cl)c(C)c1-c1cccnc1 (stereo not drawn) [Compound 2]
Ans. 37%

Further cases:
Qu. Please give the measured inhibition at 0.5 µM for this molecule: COc1c(C(C)c2nc(Br)c3c(N)ncc(Cl)n23)cc(Cl)c(C)c1-c1cccnc1 (stereo not drawn) [Compound 5]
Ans. 44%

* * *

biological target: recombinant PI3K (p110δ/p85α) (Homo sapiens, UniProt O00329); test: PI3Kδ ADP-Glo kinase assay; assay type: biochemical; settings: PI3Kδ Enzyme activity IC50
Sequence (O00329 whole entry): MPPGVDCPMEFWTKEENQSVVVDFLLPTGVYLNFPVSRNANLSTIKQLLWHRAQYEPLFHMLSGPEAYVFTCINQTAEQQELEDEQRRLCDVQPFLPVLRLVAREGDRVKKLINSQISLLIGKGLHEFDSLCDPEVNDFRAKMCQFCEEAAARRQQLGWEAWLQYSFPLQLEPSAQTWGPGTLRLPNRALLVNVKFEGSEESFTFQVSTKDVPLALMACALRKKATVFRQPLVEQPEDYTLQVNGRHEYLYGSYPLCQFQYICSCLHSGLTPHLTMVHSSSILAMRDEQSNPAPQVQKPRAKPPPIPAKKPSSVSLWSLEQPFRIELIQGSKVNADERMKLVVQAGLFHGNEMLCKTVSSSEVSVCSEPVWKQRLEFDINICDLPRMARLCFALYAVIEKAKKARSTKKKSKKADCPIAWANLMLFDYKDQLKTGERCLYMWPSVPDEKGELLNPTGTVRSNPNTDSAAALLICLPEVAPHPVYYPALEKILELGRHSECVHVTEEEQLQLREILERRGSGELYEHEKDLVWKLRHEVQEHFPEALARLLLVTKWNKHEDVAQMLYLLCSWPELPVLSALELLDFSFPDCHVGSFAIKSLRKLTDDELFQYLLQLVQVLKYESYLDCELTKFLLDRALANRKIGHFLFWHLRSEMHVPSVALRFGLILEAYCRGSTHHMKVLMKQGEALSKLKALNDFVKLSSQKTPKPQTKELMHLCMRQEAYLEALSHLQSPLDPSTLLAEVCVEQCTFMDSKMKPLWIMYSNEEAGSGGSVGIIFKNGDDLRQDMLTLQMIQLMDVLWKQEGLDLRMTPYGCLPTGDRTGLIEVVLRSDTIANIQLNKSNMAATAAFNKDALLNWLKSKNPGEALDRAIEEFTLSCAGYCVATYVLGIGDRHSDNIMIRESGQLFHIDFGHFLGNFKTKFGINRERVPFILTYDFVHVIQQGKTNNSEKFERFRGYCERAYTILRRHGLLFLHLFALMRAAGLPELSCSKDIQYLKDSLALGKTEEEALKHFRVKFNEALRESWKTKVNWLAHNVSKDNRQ
Sequence (P27986 whole entry partner): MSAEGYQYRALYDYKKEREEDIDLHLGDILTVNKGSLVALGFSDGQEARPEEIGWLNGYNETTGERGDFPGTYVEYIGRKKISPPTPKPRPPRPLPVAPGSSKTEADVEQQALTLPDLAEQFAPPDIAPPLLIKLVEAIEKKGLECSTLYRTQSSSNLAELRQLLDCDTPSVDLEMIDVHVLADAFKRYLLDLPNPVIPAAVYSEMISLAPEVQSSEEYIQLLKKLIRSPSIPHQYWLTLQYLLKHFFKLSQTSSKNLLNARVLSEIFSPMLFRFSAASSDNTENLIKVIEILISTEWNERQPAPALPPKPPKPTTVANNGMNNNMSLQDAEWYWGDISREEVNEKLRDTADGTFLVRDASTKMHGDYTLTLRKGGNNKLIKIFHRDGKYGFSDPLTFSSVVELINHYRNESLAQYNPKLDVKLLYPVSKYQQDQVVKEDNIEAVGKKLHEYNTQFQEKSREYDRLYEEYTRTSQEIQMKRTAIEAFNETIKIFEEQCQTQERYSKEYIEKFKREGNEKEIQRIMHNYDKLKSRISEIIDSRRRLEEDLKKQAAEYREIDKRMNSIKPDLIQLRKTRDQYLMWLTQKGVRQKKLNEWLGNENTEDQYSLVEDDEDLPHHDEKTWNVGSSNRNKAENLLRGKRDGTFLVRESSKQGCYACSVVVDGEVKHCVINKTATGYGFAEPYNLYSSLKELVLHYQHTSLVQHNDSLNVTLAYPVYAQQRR
Listing: pIC50 of selected molecules
pIC50 field: float, defined as -log10 of concentration (mol/L).

Known pIC50 results, listed for orientation:
Qu. Please give the measured pIC50 for this molecule: CCOc1c(C(C)c2nc(Br)c3c(N)nccn23)cc(Cl)c(C)c1-c1ccc(OC)nc1 (centres unmarked) [Compound 28]
Ans. 8.49

Qu. Another: CC(C)Oc1c(C(C)c2nc(Cl)c3c(N)nccn23)cc(Cl)c(F)c1C1CNC(=O)C1 (single isomer, unassigned) [Compound 48B]
Ans. 9.51

Qu. Another: CC(C)Oc1c([C@H](C)c2nc(Cl)c3c(N)nccn23)cc(Cl)c(F)c1-c1ccc(C(F)(F)F)nc1 [Compound 40A]
Ans. 9.00

Qu. Another: CC(C)Oc1c([C@H](C)c2nc(Cl)c3c(N)nccn23)cc(Cl)c(F)c1-c1ccc(C(=O)N(C)C)nc1 [Compound 16A]
Ans. 9.15

Next:
Qu. Please give the measured pIC50 for this molecule: COc1c(C(C)c2nc(Br)c3c(N)nccn23)cc(Cl)c(C)c1-c1ccc(C)nc1 (centres unmarked) [Compound 19]
Ans. 8.89

* * *

biological target: PI3K (p110γ) (Homo sapiens, UniProt P48736); experiment: PI3Kγ ADP-Glo kinase assay; assay type: biochemical; conditions: read-out: PI3Kγ Enzyme activity IC50
Sequence (P48736 whole entry): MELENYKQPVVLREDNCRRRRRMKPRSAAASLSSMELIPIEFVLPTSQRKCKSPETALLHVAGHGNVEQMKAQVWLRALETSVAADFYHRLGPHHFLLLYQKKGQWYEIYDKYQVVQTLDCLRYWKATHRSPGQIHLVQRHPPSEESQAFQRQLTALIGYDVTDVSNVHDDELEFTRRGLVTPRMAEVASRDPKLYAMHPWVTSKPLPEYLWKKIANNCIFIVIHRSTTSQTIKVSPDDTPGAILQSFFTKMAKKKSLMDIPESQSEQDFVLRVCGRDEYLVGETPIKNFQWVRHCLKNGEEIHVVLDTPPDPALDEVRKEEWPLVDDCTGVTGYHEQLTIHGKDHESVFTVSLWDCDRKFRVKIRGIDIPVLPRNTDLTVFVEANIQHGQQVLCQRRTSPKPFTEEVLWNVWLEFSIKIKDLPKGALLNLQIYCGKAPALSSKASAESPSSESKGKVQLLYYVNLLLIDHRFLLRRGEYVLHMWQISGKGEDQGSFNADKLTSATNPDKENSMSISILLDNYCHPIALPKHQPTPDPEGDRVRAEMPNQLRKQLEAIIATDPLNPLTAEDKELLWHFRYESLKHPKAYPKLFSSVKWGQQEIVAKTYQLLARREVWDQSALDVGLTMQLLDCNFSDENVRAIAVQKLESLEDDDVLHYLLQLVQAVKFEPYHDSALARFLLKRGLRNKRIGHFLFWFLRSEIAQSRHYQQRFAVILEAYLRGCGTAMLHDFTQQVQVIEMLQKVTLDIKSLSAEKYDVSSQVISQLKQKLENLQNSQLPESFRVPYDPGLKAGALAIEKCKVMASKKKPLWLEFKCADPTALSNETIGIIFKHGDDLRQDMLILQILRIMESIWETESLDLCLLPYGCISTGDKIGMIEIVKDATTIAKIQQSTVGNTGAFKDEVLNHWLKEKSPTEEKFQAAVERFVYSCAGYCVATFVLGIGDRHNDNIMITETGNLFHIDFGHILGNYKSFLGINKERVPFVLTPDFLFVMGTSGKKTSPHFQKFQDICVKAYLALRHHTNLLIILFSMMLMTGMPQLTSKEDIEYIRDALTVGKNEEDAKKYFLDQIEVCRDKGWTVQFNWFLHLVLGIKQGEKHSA
measuredAttribute: log10 IC50 (log10 of the value in nM)
Lab note - IC50 converted to log10 from values in nM.

Qu. Please give the measured log10 IC50 for this compound: Cc1nc([C@@H](C)c2cc(Cl)c(F)c(-c3ccc(C(=O)N4CC(C(=O)O)C4)nc3)c2OC(C)C)n2ccnc(N)c12
Ans. 3.20

Qu. Another: CCOc1c(C(C)c2nc(Br)c3c(N)nccn23)cc(Cl)c(C)c1-c1cncc(C(F)(F)F)c1 (stereo not shown)
Ans. 3.20

Qu. Another: CCOc1c([C@H](C)c2nc(Cl)c3c(N)nccn23)cc(Cl)c(C)c1-c1ccc(C)nc1
Ans. 2.48

Qu. Another: CC(c1cc(Cl)c(C#N)c(=O)n1-c1ccccc1)n1cc(Br)c2c(N)ncnc21 (stereo not shown)
Ans. 3.62

Qu. Another: CCOc1c([C@H](C)c2nc(Cl)c3c(N)nccn23)cc(Cl)c(C)c1-c1ccc(C(=O)N(C)C)nc1
Ans. 2.28

Qu. Another: CCOc1c(C(C)c2nc(Cl)c3c(N)nccn23)cc(Cl)c(C)c1-c1ccc(C)nc1 (stereo not shown)
Ans. 2.41

Next:
Qu. Please give the measured log10 IC50 for this compound: CCOc1c([C@H](C)c2nc(Cl)c3c(N)nccn23)cc(Cl)c(C)c1-c1ccc(C(=O)O)nc1
Ans. 1.83
